B1: Gamma-crystallin C, residues 91 to 170; numbered along this chain, P07315 (parent)
chain: RLYEREDHKGLMMELSEDCPSIQDRFHLSEIRSLHVLEGCWVLYELPNYRGRQYLLRPQEYRRCQDWGAMDAKAGSLRRV

variants of: B1; experiment: abundance fitness (aPCA) (normalised: wild type 0, dead -1); higher = more abundant; growth selection in yeast, the domain comes from the species named; details: Homo sapiens
Quantity measured: abundance fitness

| Variant spec | Numeric result |
| --- | --- |
| R50E | -0.068 |
| V36A | -0.783 |
| D18I | -0.758 |
| L2C | -0.777 |
| D24Y | -0.35 |
| E6Y | -0.64 |
| M12A | -0.127 |
| A72S | -0.058 |
| L11M | -0.017 |
| C64L | -0.841 |
| L11P | -0.004 |
| G75C | -0.516 |
| L37D | -0.254 |
| R32H | 0.009 |
| D7Y | -0.098 |
| H35T | 0.081 |
| A74E | -0.56 |
| C64T | -0.213 |
| E45I | -0.762 |
| D66Q | -0.491 |
| C40Y | -0.284 |
| H35G | -0.845 |
